All values here come from ChEMBL document CHEMBL3639354.

# targetOrTestSystem: 5-hydroxytryptamine receptor 6 (Homo sapiens)
# Sequence (P50406 whole entry): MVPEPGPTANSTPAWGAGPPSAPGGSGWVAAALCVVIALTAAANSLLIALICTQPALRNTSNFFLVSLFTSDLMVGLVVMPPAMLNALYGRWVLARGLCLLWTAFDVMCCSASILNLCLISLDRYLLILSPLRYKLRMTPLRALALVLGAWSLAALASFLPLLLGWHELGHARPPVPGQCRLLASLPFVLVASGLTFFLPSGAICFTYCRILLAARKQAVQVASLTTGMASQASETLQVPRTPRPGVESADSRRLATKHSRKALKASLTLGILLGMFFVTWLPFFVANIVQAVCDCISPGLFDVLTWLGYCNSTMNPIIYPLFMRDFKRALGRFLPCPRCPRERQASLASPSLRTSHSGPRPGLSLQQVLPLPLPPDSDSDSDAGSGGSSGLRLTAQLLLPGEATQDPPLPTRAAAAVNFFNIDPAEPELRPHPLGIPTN
# experimentalProtocol: Functional Assay: Functional assay using 5-HT6 receptors.
valueKind: IC50

# smi, result
measured = [
    ("CSc1nn2c(C)cc(C)nc2c1S(=O)(=O)c1ccc(F)c(Cl)c1", "46 nM"),
]
